Molecular target: BTK (C481S) (Homo sapiens (Human), UniProt Q06187, C481S)
Sequence (Q06187 whole entry C481S): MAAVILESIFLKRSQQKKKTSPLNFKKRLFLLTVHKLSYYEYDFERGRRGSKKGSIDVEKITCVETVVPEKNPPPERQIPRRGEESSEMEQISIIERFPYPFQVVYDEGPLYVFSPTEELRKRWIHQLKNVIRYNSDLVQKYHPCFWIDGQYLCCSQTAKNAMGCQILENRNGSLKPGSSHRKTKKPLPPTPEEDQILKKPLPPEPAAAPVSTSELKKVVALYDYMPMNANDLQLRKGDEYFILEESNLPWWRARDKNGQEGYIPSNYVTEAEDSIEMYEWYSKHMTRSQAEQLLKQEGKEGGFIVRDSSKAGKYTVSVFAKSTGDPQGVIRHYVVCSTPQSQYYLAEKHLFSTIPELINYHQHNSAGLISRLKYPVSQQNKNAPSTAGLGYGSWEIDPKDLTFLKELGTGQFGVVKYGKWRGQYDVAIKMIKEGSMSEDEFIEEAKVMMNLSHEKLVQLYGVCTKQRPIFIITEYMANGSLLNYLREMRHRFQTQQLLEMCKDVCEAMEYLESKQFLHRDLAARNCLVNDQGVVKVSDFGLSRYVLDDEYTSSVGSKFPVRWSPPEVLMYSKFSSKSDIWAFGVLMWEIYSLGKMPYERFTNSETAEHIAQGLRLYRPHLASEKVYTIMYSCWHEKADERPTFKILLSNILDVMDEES
Assay: BTK C481S enzyme experiment (ADP-Glo kinase assay)
Conditions: 10 nM BTK C481S, ATP 125 μM, Poly(Glu4, Tyr1), 90 minutes at 20° C.
Experimental: A 3-fold gradient concentration stock solution of 1000× compound was prepared using DMSO and diluted 100-fold to 10× compound stock solution using reaction buffer (50 mM HEPES, pH 7.5, 0.0015% Briji-35, 2 mM DTT, 10 mM MgCl2), and the 10× compound stock solution was transferred to a 384-well plate. […] Finally, the kinase activity was detected according to the experimental steps provided by ADP-Glo™ kinase Assay Kit (Promega, #V9101), and finally the luminescence chemiluminescence value was read. […]
Structures can show the parent of a compound that is named as a salt.
Provide the reported pIC50 of each item.
Friendly reminder that pIC50 comes from taking -log10 of the concentration in mol/L.

Ask | I'm curious: which pIC50 was measured for CC(=O)N1CC[C@]2(C1)Nc1c(cnc3[nH]cc(C(=O)c4ccc(Oc5ccccc5)cc4Cl)c13)NC2=O (single isomer, unassigned) tested on BTK (C481S) (Homo sapiens (Human), UniProt Q06187, C481S)?
Reply | 8.17

Ask | Next: COC1CCC2(C1)Nc1c(cnc3[nH]cc(C(=O)c4ccc(Oc5ccccc5)cc4Cl)c13)NC2=O (single isomer, unassigned) [Z25-3a]
Reply | 8.12

Ask | Next: CCOCC1(C)Nc2c(cnc3[nH]cc(C(=O)c4ccc(Oc5ccccc5)cc4Cl)c23)NC1=O (stereo not drawn)
Reply | 7.74

Ask | Next: C[C@]1(CO)Nc2c(cnc3[nH]cc(C(=O)c4ccc(Oc5ccccc5)cc4Cl)c23)NC1=O (single isomer, unassigned)
Reply | 7.70

Ask | Next: COC[C@]1(C)Nc2c(cnc3[nH]cc(C(=O)c4ccc(Oc5cc(C)cc(C)n5)cc4Cl)c23)NC1=O
Reply | 7.50

Ask | Next: CC(=O)N1CCC2(C1)Nc1c(cnc3[nH]cc(C(=O)c4ccc(Oc5ccccc5)cc4Cl)c13)NC2=O (stereo not drawn)
Reply | 7.99

Ask | Next: [2H]C([2H])([2H])OC[C@]1(C)Nc2c(cnc3[nH]cc(C(=O)c4ccc(Cn5cccn5)cc4Cl)c23)NC1=O
Reply | 7.44

Ask | Next: COC[C@]1(C)Nc2c(cnc3[nH]cc(C(=O)c4ccccc4)c23)NC1=O
Reply | 8.12

Ask | Next: [2H]C([2H])([2H])OC[C@]1(C)Nc2c(cnc3[nH]cc(C(=O)c4ccc(Oc5nccc(C)c5F)cc4Cl)c23)NC1=O
Reply | 7.79

Ask | Next: CN1CCC2(C1)Nc1c(cnc3[nH]cc(C(=O)c4ccc(Oc5ccccc5)cc4F)c13)NC2=O (stereo not drawn)
Reply | 7.92

Ask | Next: COCC1(C)Nc2c(cnc3[nH]cc(C(=O)c4ccc(Oc5cc(C)ccn5)cc4Cl)c23)N(C)C1=O (stereo not drawn) [Z65, formate]
Reply | 7.51

Ask | Next: COC[C@]1(C)Nc2c(cnc3[nH]cc(C(=O)c4sccc4Cl)c23)NC1=O
Reply | 8.01

Ask | Next: CCSC1=Nc2cnc3[nH]cc(C(=O)c4ccc(Oc5ccccc5)cc4Cl)c3c2N[C@@]1(C)COC
Reply | 6.85

Ask | Next: COCC1(C)Nc2c(cnc3[nH]cc(C(=O)c4ccc(Oc5cc(C)ccn5)cc4F)c23)NC1=O (single isomer, unassigned) [Z69-1]
Reply | 7.67

Ask | Next: O=C(c1ccc(Oc2ccccc2)cc1Cl)c1c[nH]c2ncc3c(c12)NC1(CCC(N2CCOCC2)C1)C(=O)N3 (stereo not drawn)
Reply | 8.29
